# target under test: human 5-HT6 receptor (Homo sapiens)
# Construct: expressed in transfected cells
# Sequence (P50406 whole entry): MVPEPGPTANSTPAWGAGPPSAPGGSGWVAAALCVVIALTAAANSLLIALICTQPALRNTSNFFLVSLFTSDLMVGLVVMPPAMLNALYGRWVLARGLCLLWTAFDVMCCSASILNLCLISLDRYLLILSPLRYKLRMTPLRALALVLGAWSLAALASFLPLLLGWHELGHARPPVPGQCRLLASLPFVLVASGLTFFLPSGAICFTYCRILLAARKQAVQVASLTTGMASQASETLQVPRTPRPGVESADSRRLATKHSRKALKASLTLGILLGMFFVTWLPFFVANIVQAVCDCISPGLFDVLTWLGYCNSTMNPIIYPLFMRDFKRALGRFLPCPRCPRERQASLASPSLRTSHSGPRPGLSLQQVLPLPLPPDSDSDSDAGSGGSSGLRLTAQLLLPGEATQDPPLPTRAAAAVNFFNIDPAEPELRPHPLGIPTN
# measurement description: GPCR radioligand binding assay, [3H]-LSD displacement, HEK293 membranes
# run parameters: 5-HT6; replicate exp_1
Listing of entries alongside the reported %inh 5-HT6 exp_1.
Kindly provide the numeric value in % only, without the unit symbol.

Examples with answers:
> print(dat)
                                   compound  readout.number
1                           CCn1cnc2ccccc21              23
2                          N#Cc1ccc2ncsc2c1              39
3                      O=C1CCN(c2ccccn2)CC1               0
4            COC(=O)c1c(C)nc(C2CC2)[nH]c1=O              38
5  O=C(O)C1CCCN(C(=O)N2CCCC2)C1 (stereo not shown)              29
6                O=C(c1ccncc1)N1CCNCC1 [E2]              15

Next compound, please.
%inh 5-HT6 exp_1 value, target or system human 5-HT6 receptor (Homo sapiens), for O=C1CC(CSc2ccc(Cl)cc2)=NN1 : 9
